meta.source: patent US10077237B2

- Experimental system: recombinant human AMPK complex, containing α2β1γ2 (Homo sapiens, UniProt P54646+Q9Y478)
- Construct: hsAMPKα2-552-His, hsAMPKβ1-2-270 and hsAMPKγ-2-569 respectively; hsAMPKβ1-2-270; hsAMPKγ-2-569; His (C); made in house; host or cells: Spodoptera frugiperda Sf21 (baculovirus)
- Sequence (P54646 2-552): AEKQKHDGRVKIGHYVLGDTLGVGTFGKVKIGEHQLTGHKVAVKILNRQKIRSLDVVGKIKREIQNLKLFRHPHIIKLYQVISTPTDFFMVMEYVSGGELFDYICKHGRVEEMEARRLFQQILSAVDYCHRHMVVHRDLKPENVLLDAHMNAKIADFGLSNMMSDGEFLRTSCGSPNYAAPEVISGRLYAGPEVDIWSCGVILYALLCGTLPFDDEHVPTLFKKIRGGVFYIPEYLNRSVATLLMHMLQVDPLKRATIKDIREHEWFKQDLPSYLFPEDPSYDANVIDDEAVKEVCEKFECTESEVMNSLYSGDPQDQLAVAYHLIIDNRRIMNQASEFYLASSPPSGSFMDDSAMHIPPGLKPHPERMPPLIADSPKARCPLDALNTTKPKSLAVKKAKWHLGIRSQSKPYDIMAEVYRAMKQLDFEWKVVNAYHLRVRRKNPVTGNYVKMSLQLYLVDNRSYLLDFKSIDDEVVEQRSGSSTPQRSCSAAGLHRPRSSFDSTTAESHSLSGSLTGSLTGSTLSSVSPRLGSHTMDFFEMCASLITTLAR
- Sequence (Q9Y478 2-270): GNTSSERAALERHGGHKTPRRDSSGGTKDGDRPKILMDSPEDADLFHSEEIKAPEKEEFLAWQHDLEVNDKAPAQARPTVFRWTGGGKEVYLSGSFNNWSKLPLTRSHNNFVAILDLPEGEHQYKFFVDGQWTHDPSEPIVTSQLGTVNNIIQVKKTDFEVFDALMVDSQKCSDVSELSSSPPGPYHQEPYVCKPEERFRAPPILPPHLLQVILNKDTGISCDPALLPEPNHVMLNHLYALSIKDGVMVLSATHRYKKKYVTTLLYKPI
- Sequence (Q9UGJ0 2-569 partner limits assumed): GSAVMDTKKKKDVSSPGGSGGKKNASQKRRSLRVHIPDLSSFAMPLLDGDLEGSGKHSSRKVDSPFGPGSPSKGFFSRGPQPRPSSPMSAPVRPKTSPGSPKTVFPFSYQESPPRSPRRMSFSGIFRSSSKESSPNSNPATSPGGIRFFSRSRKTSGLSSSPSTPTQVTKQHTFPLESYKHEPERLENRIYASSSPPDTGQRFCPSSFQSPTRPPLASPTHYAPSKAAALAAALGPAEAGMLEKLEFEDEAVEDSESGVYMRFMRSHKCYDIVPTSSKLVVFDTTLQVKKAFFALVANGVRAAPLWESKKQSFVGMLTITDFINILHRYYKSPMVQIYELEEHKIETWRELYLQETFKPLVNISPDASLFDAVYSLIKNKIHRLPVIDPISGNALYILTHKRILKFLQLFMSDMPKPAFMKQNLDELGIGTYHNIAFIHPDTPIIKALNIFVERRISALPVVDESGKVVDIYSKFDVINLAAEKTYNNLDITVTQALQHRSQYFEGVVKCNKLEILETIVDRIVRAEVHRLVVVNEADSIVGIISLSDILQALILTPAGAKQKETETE
- Protocol: AMPK in vitro activation assay (HTRF)
- Format: biochemical
- Experimental context: potentiation of AMPK activity as percent over the basal signal (without compound)
Reported endpoint: Emax (%)
Reply numerically in %, unit not repeated.

Below are worked cases with known answers.
*Q* What value of Emax has been reported for the following molecule? `COc1cc(C(O)=C2C(=O)Nc3cc(Cl)c(-c4ccc(C5(OC)CCC5)cc4)cc32)on1`
*A* 131

*Q* What value of Emax has been reported for the following molecule? `Cc1[nH]c(=O)sc1C(O)=C1C(=O)Nc2cc(Cl)c(-c3ccc(N4CCOCC4)cc3)cc21`
*A* 104

*Q* What value of Emax has been reported for the following molecule? `Cc1cc(C(O)=C2C(=O)Nc3cc(Cl)c(-c4ccc(C5=CCOCC5)cc4)cc32)sn1`
*A* 87

*Q* What value of Emax has been reported for the following molecule? `COc1cc(C(O)=C2C(=O)Nc3cc(Cl)c(-c4ccc(C(CO)CO)cc4)cc32)on1`
*A* 172

Switching to the query record.
*Q* What value of Emax has been reported for the following molecule? `O=C1Nc2cc(F)c(-c3ccc(C4(CO)CC4)cc3)c(F)c2C1=C(O)c1cc(C2CC2)no1`
*A* 169

###

Below, each entry is listed alongside its reported Emax.
- Experimental system: recombinant human AMPK complex, containing α2β1γ2 (Homo sapiens, UniProt P54646+Q9Y478)
- Construct: hsAMPKα2-552-His, hsAMPKβ1-2-270 and hsAMPKγ-2-569 respectively; hsAMPKβ1-2-270; hsAMPKγ-2-569; His (C); made in house; host or cells: Spodoptera frugiperda Sf21 (baculovirus)
- Protocol: AMPK in vitro activation assay (HTRF)
- Type: biochemical
- Experimental context: potentiation of AMPK activity as percent over the basal signal (without compound)
Counter-ions that a name gives are not always drawn.
Reply numerically in %, unit not repeated.

*Q* What value of Emax has been reported for the following compound? `COc1cnccc1C(O)=C1C(=O)Nc2cc(Cl)c(-c3ccc(C4(CO)CC4)cc3)cc21`
*A* 198

*Q* What value of Emax has been reported for the following compound? `COc1cc(F)c(C(O)=C2C(=O)Nc3cc(Cl)c(-c4ccc(N5CCOCC5)cc4)cc32)cc1F`
*A* 141

*Q* What value of Emax has been reported for the following compound? CN1CCN(c2cccc(C(O)=C3C(=O)Nc4cc(Cl)c(-c5ccc(N6CCOCC6)cc5)cc43)c2)CC1 [Compound 93, hydrochloride]
*A* 186

More entries:
*Q* What value of Emax has been reported for the following compound? `O=C1Nc2cc(Cl)c(-c3ccc(C4(CO)CC4)cc3)cc2C1=C(O)c1cncc(F)c1`
*A* 239

*Q* What value of Emax has been reported for the following compound? CC(C)Oc1cc(C(O)=C2C(=O)Nc3cc(Cl)c(-c4ccc(C5CC(O)C5)cc4)cc32)on1 (centres unmarked)
*A* 207

*Q* What value of Emax has been reported for the following compound? `O=C1Nc2cc(Cl)c(-c3ccc(N4CCOCC4)cc3)cc2C1=C(O)c1cc(Br)no1`
*A* 115

*Q* What value of Emax has been reported for the following compound? `Cc1cc(C(O)=C2C(=O)Nc3cc(Cl)c(-c4ccc(-c5csc(N)n5)cc4)cc32)on1`
*A* 192

*Q* What value of Emax has been reported for the following compound? `COc1cc(C(O)=C2C(=O)Nc3cc(Cl)c(-c4ccc(N5CCC5)cc4)cc32)on1`
*A* 191

*Q* What value of Emax has been reported for the following compound? `COc1ccc(C(O)=C2C(=O)Nc3cc(Cl)c(-c4ccc(N5CCOCC5)cc4)cc32)cn1`
*A* 161

*Q* What value of Emax has been reported for the following compound? `Cc1ncc(C(O)=C2C(=O)Nc3cc(Cl)c(-c4ccc(N(C)C)cc4)cc32)s1`
*A* 127

*Q* What value of Emax has been reported for the following compound? `Cc1cc(C(O)=C2C(=O)Nc3cc(Cl)c(-c4ccc(C5(CO)CC5)s4)cc32)on1`
*A* 155

###

- Experimental system: recombinant human AMPK complex, containing α2β1γ2 (Homo sapiens, UniProt P54646+Q9Y478)
- Construct: hsAMPKα2-552-His, hsAMPKβ1-2-270 and hsAMPKγ-2-569 respectively; hsAMPKβ1-2-270; hsAMPKγ-2-569; His (C)
- Protocol: AMPK in vitro activation assay (HTRF)
- Experimental context: HTRF, recombinant human α2β1γ2 AMPK, 200 μM ATP, biotinylated ACC-CREBp peptide; repeat determinations on separate lines
Where a name gives a salt, the structure may show the parent alone.
Below, each entry is listed alongside its reported pEC50.
Please report pEC50 as the negative decimal logarithm of the molar concentration, giving only the number.

Below are worked cases with known answers.
*Q* What value of pEC50 has been reported for the following compound? O=C1Nc2cc(Cl)c(-c3ccc(N4CCOCC4)cc3)cc2C1=C(O)c1ccccc1F [Compound 32]
*A* 6.85

*Q* What value of pEC50 has been reported for the following compound? O=C1Nc2cc(Cl)c(-c3ccc(C4(CO)CC4)cc3)cc2C1=C(O)c1cc(C2CC2)no1 [Compound 106]
*A* 10.00

*Q* What value of pEC50 has been reported for the following compound? CN1CCC(c2ccc(-c3cc4c(cc3Cl)NC(=O)C4=C(O)c3cc(F)cc(F)c3)cc2)C1 (stereo not drawn) [Compound 150, hydrochloride]
*A* 7.85

More entries:
*Q* What value of pEC50 has been reported for the following compound? COc1cc(C(O)=C2C(=O)Nc3cc(Cl)c(-c4ccc(C5(CO)CC5)cc4F)cc32)on1 [Compound 111]
*A* 9.00

*Q* What value of pEC50 has been reported for the following compound? COc1cc(C(O)=C2C(=O)Nc3cc(Cl)c(-c4ccc(OCCCN(C)C)cc4)cc32)on1 [Compound 173]
*A* 9.00

*Q* What value of pEC50 has been reported for the following compound? COc1ccc(C(O)=C2C(=O)Nc3cc(F)c(-c4ccc(C5(CO)CC5)cc4)cc32)cc1F [Compound 125]
*A* 9.70

###

- Experimental system: recombinant human AMPK complex, containing α2β1γ2 (Homo sapiens, UniProt P54646+Q9Y478)
- Construct: hsAMPKα2-552-His, hsAMPKβ1-2-270 and hsAMPKγ-2-569 respectively; hsAMPKβ1-2-270; hsAMPKγ-2-569; His (C); made in house; host or cells: Spodoptera frugiperda Sf21 (baculovirus)
- Protocol: AMPK in vitro activation assay (HTRF)
- Format: biochemical
- Experimental context: potentiation of AMPK activity as percent over the basal signal (without compound)
Below, each entry is listed alongside its reported Emax.
Reply numerically in %, unit not repeated.

Below are worked cases with known answers.
*Q* Return Emax measured with recombinant human AMPK complex, containing α2β1γ2 (Homo sapiens, UniProt P54646+Q9Y478) given this compound: `COc1cc(C(O)=C2C(=O)Nc3cc(Cl)c(-c4ccc(-c5cccc(OC)c5O)cc4)cc32)on1`
*A* 172

*Q* Return Emax measured with recombinant human AMPK complex, containing α2β1γ2 (Homo sapiens, UniProt P54646+Q9Y478) given this compound: `Cc1cc(C(O)=C2C(=O)Nc3cc(Cl)c(-c4ccc(N5CCCC5)cc4)cc32)on1`
*A* 143

*Q* Return Emax measured with recombinant human AMPK complex, containing α2β1γ2 (Homo sapiens, UniProt P54646+Q9Y478) given this compound: `Cc1cc(C(O)=C2C(=O)Nc3cc(Cl)c(-c4ccc(C5(CO)CC5)cc4F)cc32)on1`
*A* 151

More entries:
*Q* Return Emax measured with recombinant human AMPK complex, containing α2β1γ2 (Homo sapiens, UniProt P54646+Q9Y478) given this compound: `COc1cc(C(O)=C2C(=O)Nc3cc(Cl)c(-c4ccc(OCc5cncs5)cc4)cc32)on1`
*A* 309

*Q* Return Emax measured with recombinant human AMPK complex, containing α2β1γ2 (Homo sapiens, UniProt P54646+Q9Y478) given this compound: `Cc1cc(C(O)=C2C(=O)Nc3cc(Cl)c(-c4ccc(F)cc4O)cc32)on1`
*A* 189

*Q* Return Emax measured with recombinant human AMPK complex, containing α2β1γ2 (Homo sapiens, UniProt P54646+Q9Y478) given this compound: `COc1ccc(-c2cc3c(cc2Cl)NC(=O)C3=C(O)c2cc(C)no2)cc1F`
*A* 174

###

Below, each entry is listed alongside its reported EC50.
- Experimental system: recombinant human AMPK complex, containing α2β1γ2 (Homo sapiens, UniProt P54646+Q9Y478)
- Construct: hsAMPKα2-552-His, hsAMPKβ1-2-270 and hsAMPKγ-2-569 respectively; hsAMPKβ1-2-270; hsAMPKγ-2-569; His (C)
- Protocol: AMPK in vitro activation assay (HTRF)
- Experimental context: HTRF, recombinant human α2β1γ2 AMPK, 200 μM ATP, biotinylated ACC-CREBp peptide; repeat determinations on separate lines
Counter-ions that a name gives are not always drawn.
Reply numerically in nM, unit not repeated.

*Q* What value of EC50 has been reported for the following compound? Cc1cc(C(O)=C2C(=O)Nc3cc(Cl)c(-c4ccc(OCCCN5CCN(C)CC5)cc4)cc32)on1 [Compound 70, hydrochloride]
*A* 88

*Q* What value of EC50 has been reported for the following compound? `COc1ccc(C(O)=C2C(=O)Nc3cc(Cl)c(-c4ccc(N5CCOCC5)cc4)cc32)cc1F`
*A* 0.5

More entries:
*Q* What value of EC50 has been reported for the following compound? `COc1cc(C(O)=C2C(=O)Nc3cc(Cl)c(-c4ccc(OCc5cncs5)cc4)cc32)on1`
*A* 26
